test: yeast display, Sf9 membrane polyspecificity reagent, FACS + sequencing; frameworks hold sequencing errors
quantity-kind: polyreactivity (PSR sort gate)

Some sequences with recorded polyreactivity (PSR sort gate):
QVQRLESGGGLVQAGGSLRLSCAASGGTIDWNAMGWYRQAPGKETEFVAAITSSGGSTYYADSVKGRFTISRDNAKNSVYLQMTSLKPEDTAVYECAADFWYYQYPYGGGGYWGQGTQVTVSS; low polyreactivity
QVQLVESGGGLVQAGGSLRLSCAASGYTFDAYAMGWYRQAPGKERELVAAISGDSTNYADSVKGRFTISRDNAKNTVYLQMNSLKPEDTAVYYCAAAFWYDYWEKYDYWGQGTQVTVSS; low polyreactivity
QVQLVESGGGLVQAGGSLRLSCAASGRTFGSNAMGWYRQAPGKERELVAVITTSGGSTYYADSVKGRFTISRDNAKNTVYLQMNSLKPEDTAVYYCNKVGWYHNYYYWGQGTQVTVSS; high polyreactivity
QVQLVETGGGLVQAGGSLRLSCAATEFIFRNYDMGWYRQAPGKERELVASISRGTSTNYADSVKGRFTISRDNAKNTVYLQKNSLKPEDTAVYYCNKRFYYHPFDYWGQGSQVTVSS; high polyreactivity
QVQLVESGGGLVQAGGSLRLSCAASGSTFTVYAMGWYRLAPGKERELVAAISGSGGRTYYADSVKGRFTISRDNAKNTVYLQMNSLKPEDTAVYYCIARWGYRRGYWGQGTQVTVSS; high polyreactivity

Prompt: Given QVQLVESGGGLVQAGGSLRLSCAASGFTFTYYSMGWYRQAPGKERELVARINSCGNTNYADSVKGRFTISRDNAKNTVYLQMNSLKPEDTAVYSCARDACNRYDYWGQGTQVTVSS , state its recorded polyreactivity (PSR sort gate).
Response: low polyreactivity

Prompt: Now the sequence QVQLVESWGGLVQAGGSLRLSCAASGRTNGYAMGWYRQAPGKERELVARITWRGGSTSYADSVKGRFTISRDNAKNTVYLQMNSLKREDTAVYYCAAGFYFPVYTYVRKRYYYWGQGTQVTVSS
Response: high polyreactivity

Prompt: Now the sequence QVQLVESGGGLVQAGGSLRLSCAASGRTFYSYTMGWYRQAPGKERELVAAINRGGSTYYADSVKGRFTISRDNAKNTVYLQMNSLKPEDTAVYYCNVDWKVYGAPDYRIAWKYDYWGQGTQVTVSS
Response: low polyreactivity

Prompt: Now the sequence QVQLVESGGGLVQAGGSLRLSCAASGRTFTQYAMGWYRQAPGKERELVARISYSGGTTYYADSVKGRFTISRDNAKNTVYLQMNSLKPEDNAVYYCAKARVVAGYDYWGQGTQVTVSS
Response: high polyreactivity

Prompt: Now the sequence QVQLVESGGGLVQAGGSLRLICAASGRIFGIYAMGWYRQAPGKERELVARITGGGSTNYADSVKGRFTISRDNPKNTVYLQMNSLNPEDTAVYYCAANVRRIVGNITRYDYWGQGTQVTVSS
Response: low polyreactivity

Prompt: Now the sequence QVQLVESGRGLFKAGGSLRLSCAASGSIFDGNAMGWYRQAPGKERELVATMSWCGGSTYYADSVKGRFTISRDNSKNNVYLQMYSVNPEETAVYHCGKTPYRRYRYGGYTYSTYDYWGQGTQVTVSS
Response: low polyreactivity

---

assay: yeast display, Sf9 membrane polyspecificity reagent, FACS + sequencing; frameworks hold sequencing errors
quantity-kind: polyreactivity (PSR sort gate)

Some sequences with recorded polyreactivity (PSR sort gate):
QVQLVESWGGLVQAGGSLRLSCAASGLIFQTYTMGWYKQAPGKERELVAAITSSGGRTYYADSVKGRFTISRDNAKNTVYLQKNSLKPEDTAVYYCAARGPPSAGMGYWGQGTQVTVSS; high polyreactivity
QVQLVESGGGLVQAGGSLRLSCAASGITFDLYDMGWYRQAPGKERDFVAAITDADSTYYADSVKGRFTISRDNAKNTVYLQMNSLKPEDTAVYYCAADFFYSVYSGHYDYWGQGTQVTVSS; low polyreactivity
QVQLQESGGVLMQAGGNLRLSFPASGYISTHYDMDWYRQAPGKERELVARIDDGAITNYADSVKGRFTISRDNAKNTVYLQMNSLKPEDTAVYYCAVYYGDDYYHDYWGQGTQVTVSS; low polyreactivity
QVQLVESGGGLVQAGGSLRLSCAASGFIFVSYAMGWYRQAPGKERELVAAIDRIGGITYYADSVKGRFSISRDNAKNTVYLQMNSLKPEDTAVYYCAAAARYATVRVGREYYWGQGTQVTVSS; low polyreactivity
QVQLVESGGGLVQAGGSLRLSCAASGRIFKRNAKGWYRQAPGKEWELVATISGSGGSTYYADSVKGRFTISRDNAKNTVYLQMNSLKPEDTAVYYCAAVPGYPRDSLYNYWGQGSQVTVSS; high polyreactivity

Prompt: Given QVQVVESGGALVQAGGSLRLSCAASGRTFDWNAMGWYRQAPGKERELVAAITYSGGGTYYADSVKVRFTISRDHATNTVYLQMNSLKPEDTAVYYCAAGYPGTWSYYYWGQGTQVTVSS , state its recorded polyreactivity (PSR sort gate).
Response: low polyreactivity

Prompt: Now the sequence QVQLVESGGGLVQSGGSLRLSCAASGRIFDYNAMGWYRQAPGKERELVAAINSGGSTYADSVKGRFTISRDNAKNTVYLQMNSLKPEDTAVYYCNATPQFATFTYDYCGQGTQVTVSS
Response: low polyreactivity

Prompt: Now the sequence QVQLVESGGVLVQAGGSLRLSCAASGSIFNYYAMGWYRQAPGKERELVAGITTSGGSTYYADSVKARFTISRDNEKNSVYLQMNSLTPEDTAVYYCAAYDYISSTYFLDDYWGQGTQVTVSS
Response: low polyreactivity

---

test: yeast display, Sf9 membrane polyspecificity reagent, FACS + sequencing; frameworks hold sequencing errors
quantity-kind: polyreactivity (PSR sort gate)

Some sequences with recorded polyreactivity (PSR sort gate):
QVQLVESGGGLVQAGGSLRLSCAASGINLAGYVMGGYRQAPGKERDLVADISSSGDSTYYADSVKGRFTISRDNAKNTVYLQMNSLLPEDTAVYYCAAEEIIPLIYKGYPFDYWGQGSQVTVSS; low polyreactivity
QVHLQECGDGLVQALGSQRLSCAARCYISGYYYMGWYRQAPGKERELVAGIDAFGSSTNYADCVKGRFTISRYNAKNTVYLQMKSLKPEDTALYYCAARPDGDRLFSYWGQGTQVTVFS; low polyreactivity
QVQLVESGGGLVQAGGSLRLSCAASGSIFPYAMGWYRQAPGKERELVAAITSGVRTNYADSVKGRFTISRDNAKNTVYLQIYSLKPEDTAVYYCAARYFPHYYSKYDYWGQGTQVTVSS; low polyreactivity
QVQLVESGGGLVQAGGSLRLSCAASGFTFGYYAMGWYRQAPGKERELVAAITFRGGRTYYADSVKGRFTISRDNAKNTVYLQMNSLKPEDTAVYYCAALSLVRYYHNANYYPYYYWGQGTQVTVSS; high polyreactivity

Prompt: Given QVQLVESGGGLVQAGGSLRLSCAASGNTFGLYAMGWYRQAPGKDRELVATITWSVSTYADSEKGRFTISRDNAKITVYLEMNSLKPEDTAVYFCAATTGPWYWRYVYWGQGTQVTVSS , state its recorded polyreactivity (PSR sort gate).
Response: high polyreactivity

Prompt: Now the sequence QVQLVESGGGLVQAAGSLRLSCAASGLTFGGYPMGWYRQAPGKERELVAAISRSCGSTYYADSVKGRFTISRDNAKNTVYLQMNSLKPEDTAVSYCNAGRDTKYDYWGQGTQVTVSS
Response: low polyreactivity

Prompt: Now the sequence QVQLVESGGGLVPSGGSLRLSCAASGGIFYFNAMGWYRQAPGKERELVASITWSGGNTYYADSVKGRFTISRDNAKNTVSLQMNSLKPEDTAVYYSAADTQEYRPTYDYWGQGTQVTVSS
Response: low polyreactivity

Prompt: Now the sequence QLQLVESGGGLVQAGGSLRLSCAASGSILTINAMGWYSQAPGKERELVAAITGNGGSTDYADSVKVRFTISRDNAKNTVYLQMNSQKPEDTAVYYCAARVRGTGVYGGYNYWGQGTQVTVSS
Response: high polyreactivity

Prompt: Now the sequence QVQLVESGGGLVQAGGSLRLSCAASGSIFGYYARGWYRQASGKESELVADITSSGSTYYADSVKGRFTISRDNAKNTVYLQMNSLKPEDTAVYYCAADQYFLGSIDGFEYWGQRTQVTVSS
Response: low polyreactivity

Prompt: Now the sequence QDQLVESGGGLVQAGGSLRLSCAASGNIYPYAMGWYRQAPGKEREFVAAIRYSGGITYYADSVKGRFTISRDNAKNTVYLQMNSLKPEDTAVYYCAAYGWGNRWYSRFDYWGQGTQVTVSS
Response: high polyreactivity

Prompt: Now the sequence QVQLVESGGGLVQAGGSLRLSCAASGVIFWEYAMGWYRQAPGKERELVAAISTSGGSTYYADSVKGRFTISRDNAKNTVYLQMISLKPEDTAVYYCAVDGWDDTYFRQDMDYWGQGTQVTVSS
Response: low polyreactivity
